Cited source for all entries: patent US20230190760A1

Assay overview: Plasma PK and interconversion in rat
Type: in vivo
Condition context: Compound 1 30 mg/kg PO, dose normalized to 1 mg/kg
Description: Compound 1 was administered to a rat at a concentration of 30 mg/kg PO and monkeys at a concentration of either 60 μg/kg or 100 μg/kg PO. At the indicated timepoints shown in FIG. 25A and FIG. 25B, plasma samples were collected and the Cmax, half-life, and AUC0-inf were determined for both Compound 1 and a metabolite of Compound 1, Compound 14. The percent of Compound 14 was also determined (Table 13). PK values dose normalized to 1 mg/kg. […]
Observable: Cmax (ng/mL)
Supply the numeric figure in ng/mL, leaving out any unit text.

Cmax recorded for this compound, O=C1CC[C@H](N2C(=O)c3cccc4c(Cc5ccc(CN6CCOCC6)cc5)ccc2c34)C(=O)N1 (single isomer, unassigned) , is 110

Cmax recorded for this compound, O=C1CC[C@@H](N2C(=O)c3cccc4c(Cc5ccc(CN6CCOCC6)cc5)ccc2c34)C(=O)N1 , is 6
